biological target: Cellular tumor antigen p53 (Homo sapiens) (UniProt P04637); assay: TOX21_p53_BLA_p3_ratio: Tox21 HCT-116 p53 Agonism Beta-lactamase Assay, Ratio, Phase 3 (AID 2283596)
Sequence (P04637 whole entry, looked up): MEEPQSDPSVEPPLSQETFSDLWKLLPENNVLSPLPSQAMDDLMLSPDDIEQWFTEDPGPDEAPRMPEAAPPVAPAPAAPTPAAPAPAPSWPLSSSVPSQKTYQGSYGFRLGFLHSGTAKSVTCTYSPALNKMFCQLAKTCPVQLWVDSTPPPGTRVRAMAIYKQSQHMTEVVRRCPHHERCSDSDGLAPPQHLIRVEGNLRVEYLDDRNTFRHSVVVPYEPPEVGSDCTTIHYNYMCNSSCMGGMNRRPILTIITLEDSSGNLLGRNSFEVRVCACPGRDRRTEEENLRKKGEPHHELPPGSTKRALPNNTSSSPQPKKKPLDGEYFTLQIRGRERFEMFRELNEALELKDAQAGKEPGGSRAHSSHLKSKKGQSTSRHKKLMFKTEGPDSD
Records with an inconclusive call do not appear. Active and inactive are the calls of the source. The calls were made as follows: active = hit-call score of the fitted dose curve at least 0.9, where 1 is the maximum; inconclusive = response in the unintended direction; inactive = score below 0.9.
Return exactly one item of 1.0 = active, 0.0 = inactive

Example cases with answers are listed next.
CC(C)(C)c1cc(O)c(C(C)(C)C)cc1O ... 1.0
COCCOCCOC ... 0.0
COc1cccc2c1C(=O)c1c(O)c3c(c(O)c1C2=O)C[C@@](O)(C(=O)CO)C[C@@H]3O[C@H]1C[C@H](N)[C@H](O)[C@H](C)O1 ... 1.0

# fetch the recorded call for Cc1cc(NC(=O)C(=O)O)cc(C)c1Oc1ccc(O)c2c1CCC2 here
0.0

Also check CN[C@H]1CC[C@@H](c2ccc(Cl)c(Cl)c2)c2ccc(S(N)(=O)=O)cc21
1.0

Can you handle CCCCN(CCCC)CCCC next?
0.0

Quick one: NCCO
0.0

Queued: CCOC(=O)C(C)(C)Oc1ccc(Cl)cc1
0.0

Next compound: O=C(OCCCCCOC(=O)c1ccccc1)c1ccccc1
0.0

FYI, the data here is from PubChem BioAssay (EPA / NIEHS).
